# measured.target: CDC42BPB (human)
# experiment.description: radiometric filter-binding kinase assay, Kinase HotSpot
# condition.details: compound 0.5 µM; ATP 10 µM
assay.metric: residual activity (%)
Numbers only here, please. The scale is %.

## Task // lookup residual activity for Oc1cccc(-c2nc(N3CCOCC3)c3oc4ncccc4c3n2)c1
## Result 99.4

## Task Ok, now CNc1cc2c(Nc3cccc(Br)c3)ncnc2cn1
## Result 107

## Task Ok, now CC[n+]1c(/C=C/N(C)c2ccccc2)n(-c2ccccc2)c2ccc(-c3nc4ccccc4s3)cc21
## Result 95

## Task Ok, now CO[C@H]1CC2CC[C@@H](C)[C@@](O)(O2)C(=O)C(=O)N2CCCC[C@H]2C(=O)OC([C@H](C)C[C@@H]2CC[C@@H](O)[C@H](OC)C2)CC(=O)[C@H](C)/C=C(\C)[C@@H](O)[C@@H](OC)C(=O)[C@H](C)C[C@H](C)/C=C/C=C/C=C/1C (stereo partly specified)
## Result 103

## Task Ok, now N#C/C(=C(/N)Sc1ccc(N)cc1)c1ccccc1C(F)(F)F
## Result 104

// moving on: another record for residual activity
## Task // lookup residual activity for Nc1ncnc2c1c(-c1ccc(Oc3ccccc3)cc1)cn2C1CCCC1
## Result 107

* * *

# measured.target: UniProt:Q9UBS0
# Sequence (Q9UBS0 whole entry, looked up): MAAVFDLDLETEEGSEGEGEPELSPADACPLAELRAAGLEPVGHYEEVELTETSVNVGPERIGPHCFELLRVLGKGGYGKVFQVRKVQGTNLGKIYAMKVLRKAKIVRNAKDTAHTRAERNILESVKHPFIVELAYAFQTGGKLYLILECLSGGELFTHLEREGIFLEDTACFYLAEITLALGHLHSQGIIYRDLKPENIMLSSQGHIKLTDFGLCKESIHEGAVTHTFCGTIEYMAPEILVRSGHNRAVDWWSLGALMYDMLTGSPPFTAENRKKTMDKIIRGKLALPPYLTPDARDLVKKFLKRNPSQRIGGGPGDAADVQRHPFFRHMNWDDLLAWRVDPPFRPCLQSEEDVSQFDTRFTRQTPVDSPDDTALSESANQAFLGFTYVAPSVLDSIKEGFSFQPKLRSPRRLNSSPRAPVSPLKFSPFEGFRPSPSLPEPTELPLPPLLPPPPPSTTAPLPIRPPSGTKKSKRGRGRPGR
# experiment.description: radiometric filter-binding kinase assay, Kinase HotSpot
# condition.details: compound 0.5 µM; ATP 10 µM
assay.metric: residual activity (%)
Numbers only here, please. The scale is %.

## Task // lookup residual activity for O=C1NC(=O)/C(=C/c2ccc3c(c2)OC(F)(F)O3)S1
## Result 101

## Task Ok, now COc1ccc2c(c[n+](C)c3c4cc5c(cc4ccc23)OCO5)c1OC
## Result 99.6

## Task Ok, now CC#CC(=O)Nc1cc2c(Nc3ccc(F)c(Cl)c3)ncnc2cn1
## Result 97.2

* * *

# measured.target: ABL2 (human)
# experiment.description: radiometric filter-binding kinase assay, Kinase HotSpot
# condition.details: compound 0.5 µM; ATP 10 µM
Overview of reported residual activity across a group of molecules:
Just the number plus its unit, please.

Some molecules with known residual activity results, for comparison:
## Task Please state recorded residual activity (tested on ABL2 (human)) of O=C1NC(=O)C(c2cn(CCCn3ccnc3)c3ccccc23)=C1Nc1ccccc1
## Result 91.8%

## Task Ok, now CCCC(=O)Oc1ccc2[nH]c(C(=O)c3cc4ccccc4[nH]3)cc2c1
## Result 96.3%

// moving on: another record for residual activity
## Task Please state recorded residual activity (tested on ABL2 (human)) of COc1ccc(COc2ccc(Cc3cnc(N)nc3N)cc2OC)cc1
## Result 107%

* * *

Overview of reported residual activity across a group of compounds:
# measured.target: CDK4 CCND1 (human) (UniProt P24385+P11802)
# Sequence (P11802 whole entry, looked up): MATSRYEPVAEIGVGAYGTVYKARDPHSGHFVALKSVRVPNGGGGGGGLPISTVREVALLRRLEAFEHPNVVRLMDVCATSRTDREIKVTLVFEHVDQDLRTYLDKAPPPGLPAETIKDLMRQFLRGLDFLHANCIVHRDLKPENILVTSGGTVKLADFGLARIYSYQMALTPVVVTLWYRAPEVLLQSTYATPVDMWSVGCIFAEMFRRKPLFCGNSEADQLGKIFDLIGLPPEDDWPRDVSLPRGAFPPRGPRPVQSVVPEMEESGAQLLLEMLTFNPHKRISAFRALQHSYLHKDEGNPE
# Sequence (P24385 whole entry, looked up): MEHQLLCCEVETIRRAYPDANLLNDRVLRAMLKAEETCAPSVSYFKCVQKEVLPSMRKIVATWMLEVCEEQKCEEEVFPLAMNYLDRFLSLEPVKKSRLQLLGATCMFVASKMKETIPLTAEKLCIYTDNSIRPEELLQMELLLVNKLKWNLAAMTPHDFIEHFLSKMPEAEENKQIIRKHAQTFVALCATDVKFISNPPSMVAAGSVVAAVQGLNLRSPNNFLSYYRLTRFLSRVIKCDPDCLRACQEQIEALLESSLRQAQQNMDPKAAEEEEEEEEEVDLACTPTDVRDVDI
# experiment.description: radiometric filter-binding kinase assay, Kinase HotSpot
# condition.details: compound 0.5 µM; ATP 10 µM
Just the number plus its unit, please.

Some compounds with known residual activity results, for comparison:
## Task // lookup residual activity for O=C1NC(=O)C(c2cn(CCCn3ccnc3)c3ccccc23)=C1Nc1ccccc1
## Result 99.1%

## Task Ok, now CCCC(=O)Oc1ccc2[nH]c(C(=O)c3cc4ccccc4[nH]3)cc2c1
## Result 106%

## Task Ok, now c1ccc(-c2n[nH]c3c2oc2ccccc23)cc1
## Result 87.9%

## Task Ok, now COC[C@H]1OC(=O)c2coc3c2[C@@]1(C)C1=C(C3=O)[C@@H]2CCC(=O)[C@@]2(C)C[C@H]1OC(C)=O
## Result 94.8%

## Task Ok, now CC#CC(=O)Nc1cc2c(Nc3ccc(F)c(Cl)c3)ncnc2cn1
## Result 98.6%

## Task Ok, now CCN(CC)C(=O)c1ccc(Nc2nc(OCC3CCCCC3)c3nc[nH]c3n2)cc1
## Result 82%

## Task Ok, now O=C(Nc1cccc(Nc2nccc(Nc3cccc(C(F)(F)F)c3)n2)c1)C1CC1
## Result 101%

## Task Ok, now CCC(=O)Nc1ccc2ncnc(Nc3cccc(Br)c3)c2c1
## Result 101%

## Task Ok, now CC(=O)c1ccc(N2CCOCC2)cc1O
## Result 94.4%

## Task Ok, now Nc1ccc2ncnc(NCCc3ccc(Oc4ccccc4)cc3)c2c1
## Result 102%

Others:
## Task // lookup residual activity for O=C1Nc2ccc(Cl)cc2/C1=C/c1cc(Cl)c(O)c(Cl)c1
## Result 94.7%

## Task Ok, now CCOC(=O)c1c(C)[nH]c(/C=C2\C(=O)Nc3ccccc32)c1C
## Result 103%

## Task Ok, now Nc1cccc(-c2cc3c(Oc4cccc(O)c4)ncnc3[nH]2)c1
## Result 88.7%

## Task Ok, now Cc1[nH]c(/C=C2\C(=O)Nc3ccc(S(=O)(=O)N(C)c4cccc(Cl)c4)cc32)c(C)c1C(=O)N1CCN(C)CC1
## Result 88.5%

## Task Ok, now O=C1NC(=O)c2c1c1c3ccccc3n3c1c1c2c2ccccc2n1C1CCC3O1
## Result 11.2%

## Task Ok, now Cc1ccc(Nc2nccc(N(C)c3ccc4c(C)n(C)nc4c3)n2)cc1S(N)(=O)=O
## Result 88.4%

## Task Ok, now O=C1NC(=O)/C(=C/c2ccc3c(c2)OC(F)(F)O3)S1
## Result 97.1%

## Task Ok, now CCN(CC)CCNC(=O)c1c(C)[nH]c(/C=C2\C(=O)Nc3ccc(Cl)cc32)c1C
## Result 74.1%

## Task Ok, now COc1ccc2c(c[n+](C)c3c4cc5c(cc4ccc23)OCO5)c1OC
## Result 87.5%

## Task Ok, now c1ccc(-c2n[nH]cc2-c2ccnc3ccccc23)nc1
## Result 101%

## Task Ok, now CO[C@H]1CC2CC[C@@H](C)[C@@](O)(O2)C(=O)C(=O)N2CCCC[C@H]2C(=O)OC([C@H](C)C[C@@H]2CC[C@@H](O)[C@H](OC)C2)CC(=O)[C@H](C)/C=C(\C)[C@@H](O)[C@@H](OC)C(=O)[C@H](C)C[C@H](C)/C=C/C=C/C=C/1C (some centres not stated)
## Result 115%

## Task Ok, now CNC(=O)c1cc(Oc2ccc(NC(=O)Nc3ccc(Cl)c(C(F)(F)F)c3)cc2)ccn1
## Result 96.2%
